Tested on: Staphylococcus aureus
Lab note - cut at 6 µM for MIC: Yes if strictly below, No if not.

Task: Given the entry `NCCCC[C@H](NC(=O)[C@H](Cc1c[nH]c2ccccc12)NC(=O)[C@H](Cc1c[nH]c2ccccc12)NC(=O)[C@H](CCCN=C(N)N)NC(=O)[C@@H](N)Cc1c[nH]c2ccccc12)C(=O)N[C@@H](Cc1c[nH]c2ccccc12)C(=O)N[C@@H](Cc1c[nH]c2ccccc12)C(N)=O` , would its reported MIC be below 6 µM?
Output: No

Task: Given the entry `CC[C@H](C)[C@H](NC(=O)CN)C(=O)N[C@@H](CCSC)C(=O)N[C@@H](CO)C(=O)N[C@@H](CO)C(=O)N[C@@H](CC(C)C)C(=O)N[C@@H](CCSC)C(=O)N[C@@H](CCCCN)C(=O)N[C@@H](CCCCN)C(=O)N[C@@H](CC(C)C)C(=O)N[C@@H](CCCCN)C(=O)N[C@@H](CCCCN)C(=O)N[C@H](C(=O)N[C@H](C(=O)N[C@@H](CCCCN)C(=O)N[C@@H](CCCCN)C(N)=O)[C@@H](C)CC)[C@@H](C)CC` , would its reported MIC be below 6 µM?
Output: No

Task: Given the entry `NC(N)=NCCC[C@H](NC(=O)[C@H](CCCN=C(N)N)NC(=O)[C@H](CCCN=C(N)N)NC(=O)[C@H](CCCN=C(N)N)NC(=O)[C@H](CCCN=C(N)N)NC(=O)[C@H](CCCN=C(N)N)NC(=O)[C@H](CCCN=C(N)N)NC(=O)[C@H](CCCN=C(N)N)NC(=O)[C@H](Cc1c[nH]c2ccccc12)NC(=O)[C@@H](N)Cc1c[nH]c2ccccc12)C(=O)O` , would its reported MIC be below 6 µM?
Output: Yes

Task: Given the entry `CC[C@H](C)[C@H](NC(=O)CNC(=O)[C@H](CO)NC(=O)[C@H](CC(C)C)NC(=O)[C@H](CC(C)C)NC(=O)CN)C(=O)N[C@@H](CC(C)C)C(=O)NCC(=O)N[C@@H](C)C(=O)NCC(=O)N[C@@H](CCCCN)C(=O)N[C@@H](Cc1cnc[nH]1)C(=O)N[C@H](C(=O)N[C@H](C(=O)N[C@H]1CSSC[C@@H](C(=O)O)NC(=O)[C@H](CC(C)C)NC(=O)CNC(=O)[C@H](CO)NC(=O)[C@H](CC(C)C)NC(=O)CNC1=O)[C@@H](C)CC)[C@@H](C)CC` , would its reported MIC be below 6 µM?
Output: No

Task: Given the entry `CC[C@H](C)[C@H](NC(=O)[C@H](CC(C)C)NC(=O)[C@H](C)NC(=O)[C@@H]1CCCN1C(=O)[C@H](CC(C)C)NC(=O)[C@@H](N)CC(C)C)C(=O)N[C@@H](CO)C(=O)N[C@@H](Cc1c[nH]c2ccccc12)C(=O)N[C@H](C(=O)N[C@@H](CCCCN)C(=O)N[C@@H](CCCN=C(N)N)C(=O)N[C@@H](CCCCN)C(=O)N[C@@H](CCCN=C(N)N)C(=O)N[C@@H](CCC(N)=O)C(=O)N[C@@H](CCC(N)=O)C(N)=O)[C@@H](C)CC` , would its reported MIC be below 6 µM?
Output: Yes

Task: Given the entry `CC[C@H](C)[C@H](NC(=O)[C@H](CO)NC(=O)[C@H](CC(C)C)NC(=O)[C@H](Cc1ccccc1)NC(=O)CN)C(=O)N[C@@H](CC(C)C)C(=O)N[C@@H](CCCCN)C(=O)N[C@@H](CCCCN)C(=O)N[C@H](C(=O)N[C@@H](CC(C)C)C(N)=O)C(C)C` , would its reported MIC be below 6 µM?
Output: No

Task: Given the entry `CC[C@H](C)[C@H](N)C(=O)N[C@@H](CC(C)C)C(=O)NCC(=O)N[C@@H](C)C(=O)N[C@H](C(=O)N[C@H](C(=O)N1CCC[C@H]1C(=O)N[C@@H](CC(C)C)C(=O)N[C@H](C(=O)N[C@@H](CO)C(=O)NCC(=O)N[C@@H](CC(C)C)C(=O)N[C@@H](CC(C)C)C(=O)N[C@@H](CO)C(=O)N[C@@H](Cc1cnc[nH]1)C(=O)N[C@@H](CC(C)C)C(N)=O)C(C)C)[C@@H](C)CC)[C@@H](C)CC` , would its reported MIC be below 6 µM?
Output: No

Task: Given the entry `CC(C)C[C@H](NC(=O)[C@@H](N)Cc1ccccc1)C(=O)NCC(=O)N[C@H](C(=O)N[C@H](C(=O)N[C@@H](Cc1ccccc1)C(=O)N[C@@H](CCCCN)C(=O)N[C@@H](CCCCN)C(=O)N[C@@H](C)C(=O)N[C@@H](CO)C(=O)N[C@@H](CCCCN)C(=O)N[C@H](C(=O)N[C@@H](Cc1ccccc1)C(=O)N1CCC[C@H]1C(=O)N[C@@H](C)C(=O)N[C@H](C(=O)N[C@@H](Cc1ccccc1)C(=O)N[C@@H](CCCCN)C(=O)N[C@@H](CCCCN)C(=O)N[C@H](C(=O)O)C(C)C)C(C)C)C(C)C)C(C)C)C(C)C` , would its reported MIC be below 6 µM?
Output: No

Task: Given the entry `CC(C)C[C@H](NC(=O)[C@H](CCCCN)NC(=O)[C@H](Cc1ccccc1)NC(=O)[C@@H](NC(=O)[C@@H](NC(=O)CNC(=O)[C@H](CC(C)C)NC(=O)[C@@H](N)Cc1ccccc1)C(C)C)C(C)C)C(=O)N[C@@H](C)C(=O)N[C@@H](CO)C(=O)N[C@@H](CCCCN)C(=O)N[C@H](C(=O)N[C@@H](Cc1ccccc1)C(=O)NCC(=O)N[C@@H](C)C(=O)N[C@H](C(=O)N[C@@H](Cc1ccccc1)C(=O)N[C@@H](CCCCN)C(=O)N[C@@H](CCCCN)C(=O)N[C@H](C(=O)O)C(C)C)C(C)C)C(C)C` , would its reported MIC be below 6 µM?
Output: Yes

Task: Given the entry `CC[C@H](C)[C@H](NC(=O)[C@H](C)NC(=O)[C@H](C)NC(=O)[C@H](CC(C)C)NC(=O)[C@@H](NC(=O)[C@H](CCCCN)NC(=O)[C@H](CCCN=C(N)N)NC(=O)[C@@H]1CCCN1C(=O)[C@H](CC(C)C)NC(=O)CN)[C@@H](C)CC)C(=O)N[C@@H](C)C(=O)N[C@@H](CCCCN)C(=O)N[C@@H](CCCCN)C(=O)N[C@@H](CCCCN)C(N)=O` , would its reported MIC be below 6 µM?
Output: No
